Can you tell me TGI for the items I'm about to list?
tested on: UO-31 renal; experiment: NCI tumour cell line growth inhibition, 48 h

Which TGI is reported for this molecule? CC1=C2[C@@H](CC1)[C@]1(C)O[C@@](C(C)C)(C[C@H]1OC(=O)CO)[C@H]2OC(=O)C1CC1c1ccccc1 (stereo not given in full)
25.1 µM

What do we get for `Cc1cc(S(=O)(=O)Nc2nnc3cnc4ccccc4n23)c(S)cc1Cl` ?
> 100 µM

What do we get for `c1csc(-c2ccsc2-c2cccs2)c1` ?
> 100 µM

What do we get for `O=c1[nH]cc(Cl)c(=O)[nH]1` ?
> 100 µM

What do we get for `Cc1ccc(/C=N/Nc2nc(Nc3ccccc3)nc(-n3nc(C)cc3C)n2)cc1` ?
19.7 µM

What do we get for `C[N+](C)(C)CC(=O)N/N=C(/C(=O)Nc1ccc(Br)cc1)C1C(=O)NC(=O)NC1=O` ?
> 100 µM

What do we get for `O=C(CCCN1CCC(O)(c2ccc(Cl)cc2)CC1)c1ccc(F)cc1` ?
45.8 µM

What do we get for `O=C1CC(c2ccccc2)=Nc2ccccc2N1` ?
> 100 µM

What do we get for Cc1cccc(C)c1NC(=O)C1=NC(=S)NC(c2ccccc2)C1c1nc2ccccc2s1 (stereo not given) ?
> 100 µM

What do we get for `CN(c1ccc(C(=O)c2ccc(N(C)S(C)(=O)=O)cc2)cc1)S(C)(=O)=O` ?
> 100 µM

* * *

tested on: NCI-H522 lung; test: NCI tumour cell line growth inhibition, 48 h; in the data active = GI50 below about 0.43 µM; inactive = the rest
Answer with one of the outcomes yes (1) = active, no (0) = inactive

// param item: `COc1cc(/C=C/C(=O)/C=C/c2ccc(-n3ccnc3C)cc2)ccc1O` ; yields the recorded call
no (0)

What do we get for `COc1ccc2c(c1)nc(C(=O)c1ccco1)c(C(F)(F)F)[n+]2[O-]` ?
no (0)

What do we get for `Cc1ccc(/C=N/Nc2nc(Nc3ccccc3)nc(-n3nc(C)cc3C)n2)cc1` ?
no (0)

What do we get for CC1C(C)N(C(=O)CCl)c2ccccc2N1C(=O)CCl (configuration not stated) ?
yes (1)

What do we get for `COc1ccc2c(c1OC)CO[C@@H]2[C@H]1c2c(cc3c(c2OC)OCO3)CCN1S(=O)(=O)c1cn(C)cn1` ?
no (0)

What do we get for CCC(C)Nc1ccc(N)cc1 (configuration not stated) ?
no (0)

What do we get for `NCCCC[C@@H]1NC(=O)[C@H](CC(=O)O)NC(=O)CNC(=O)[C@H](CCCN=C(N)N)NC(=O)[C@@H](N)CSSC[C@@H](C(=O)O)NC(=O)[C@H](CC(=O)O)NC(=O)[C@@H]2CCCN2C(=O)CNC1=O` ?
no (0)

* * *

Can you tell me TGI for the items I'm about to list?
system: MDA-MB-435; assay: NCI tumour cell line growth inhibition, 48 h

Which TGI is reported for this molecule? `CCOC(=O)c1nc2ccc(C(F)(F)F)cc2nc1Nc1ccc(Cl)c(Cl)c1`
> 100 µM

What do we get for `O=C(N=c1ccc2nc(=O)[nH]n(O)c-2c1)C(F)(F)F` ?
> 100 µM

What do we get for `CCc1ccc(CCC(=O)Nc2ncc(Cc3ccc(Cl)cc3)s2)o1` ?
0.366 µM

What do we get for `Cc1csc2c1-n1cccc1C2=O` ?
> 100 µM

What do we get for `CC(=O)Nc1c(S(=O)(=O)c2ccccc2)c(C)c(C)n1Cc1ccccc1` ?
> 100 µM

What do we get for `O=S(=O)(NNc1ccccc1)c1ccccc1` ?
21.3 µM

What do we get for `O=C(NC(=O)c1cc(-c2ccccc2)n[nH]1)c1ccccc1` ?
> 100 µM

What do we get for `COC(=O)c1c(O)ccc2[nH]c3c(O)c4ccccc4cc3c12` ?
70.7 µM

What do we get for CCOC(=O)C(NC(=O)c1ccccc1)(N1CCN(c2cc3c(cc2F)c(=O)c(C(=O)O)cn3CC)CC1)C(F)(F)F (stereo unspecified) ?
> 100 µM

What do we get for `O=C(/C=C/c1cccc(Oc2ccccc2)c1)NCc1ccc(C(=O)NCCc2ccccc2)cc1` ?
> 100 µM

What do we get for NC(CCOCCP(=O)(O)O)C(=O)O (stereo unspecified) ?
> 100 µM
